Target: T1, CRBN, Q96SW2;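 note: pooled lentiviral library of zinc finger degron-EGFP fusions in mCherry-positive Jurkat cells, FACS-sorted after compound exposure, with degron abundance counted by next-generation sequencing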
T1 chain: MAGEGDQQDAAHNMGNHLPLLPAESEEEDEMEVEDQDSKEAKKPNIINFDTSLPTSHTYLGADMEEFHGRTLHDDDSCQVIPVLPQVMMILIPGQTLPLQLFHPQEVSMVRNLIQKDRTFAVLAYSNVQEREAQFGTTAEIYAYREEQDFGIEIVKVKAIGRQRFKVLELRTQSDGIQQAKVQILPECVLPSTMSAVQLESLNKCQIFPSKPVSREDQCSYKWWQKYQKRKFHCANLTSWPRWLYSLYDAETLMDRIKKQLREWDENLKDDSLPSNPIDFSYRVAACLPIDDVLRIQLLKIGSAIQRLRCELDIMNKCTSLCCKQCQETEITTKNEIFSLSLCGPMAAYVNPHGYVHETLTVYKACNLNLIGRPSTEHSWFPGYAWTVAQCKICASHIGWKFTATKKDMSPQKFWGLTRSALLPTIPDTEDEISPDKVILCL
Assay: log2 fold change of degron read counts, EGFP-low vs EGFP+ sorted cells (limma voom), compound-induced degradation; higher = more compound-induced degradation of the degron-EGFP fusion; degrons are variants of IKZF1/3 zinc finger 2; compound dose not given here
Conditions: Jurkat; 18 h; compound: compound 22 (5-morpholino-thalidomide)
Over roughly 8,300 sequences, “log2 fold change of degron read counts, EGFP-low vs EGFP+ sorted cells (limma voom), compound-induced degradation” has its median near -1.1; the highest 2% begin near 3.2. The sample holds the highest values, similar sequences and a random draw of the others, so the mix is not that of the screen.
property_label: log2 fold change of degron read counts

## Input Need log2 fold change of degron read counts, item FNCPVCGAVFTQKGNLLRHIKL [46F_47N_49P_50V_52G_53A_54V_55F_67L_, Q9UKT9]
## Output 0.118

# batch size: 4; output log2 fold change of degron read counts per entry
1. LTCNQCGFMCTQKGNLLRHIKL [46L_47T_49N_50Q_52G_53F_54M_55C_67L_, Q9UKT9]
2. FFCSVCGHNFTQKGNLLRHIKL [46F_47F_49S_50V_52G_53H_54N_55F_67L_, Q9UKT9]
3. FICEICGAIFTQKGNLLRHIKL [46F_47I_49E_50I_52G_53A_54I_55F_67L_, Q9UKT9]
4. FHCEICGAIFTQKGNLLRHIKL [46F_47H_49E_50I_52G_53A_54I_55F_67L_, Q9UKT9]

## Output
1: -1.99; 2: -2.66; 3: 0.427; 4: 0.746

# batch size: 7; output log2 fold change of degron read counts per entry
1. FRCEICGAIFTQKGNLLRHIKL [46F_47R_49E_50I_52G_53A_54I_55F_67L_, Q9UKT9]
2. FQCEQCGAAFTQKGNLLRHIKL [46F_47Q_49E_50Q_52G_53A_54A_55F_67L_, Q9UKT9]
3. FQCNICGAIFTQKGNLLRHIKL [46F_47Q_49N_50I_52G_53A_54I_55F_67L_, Q9UKT9]
4. FSCEICGAIFTQKGNLLRHIKL [46F_47S_49E_50I_52G_53A_54I_55F_67L_, Q9UKT9]
5. FMCEICGRDFTQKGNLLRHIKL [46F_47M_49E_50I_52G_53R_54D_55F_67L_, Q9UKT9]
6. FWCEICGAIFTQKGNLLRHIKL [46F_47W_49E_50I_52G_53A_54I_55F_67L_, Q9UKT9]
7. FFCEICGAIFTQKGNLLRHIKL [46F_47F_49E_50I_52G_53A_54I_55F_67L_, Q9UKT9]

## Output
1. -0.637
2. 0.724
3. 2.07
4. 1.4
5. -3.78
6. 3.55
7. 3.61

# batch size: 2; output log2 fold change of degron read counts per entry
1. FGCDVCGALFTQKGNLLRHIKL [46F_47G_49D_50V_52G_53A_54L_55F_67L_, Q9UKT9]
2. FSCNQCGRMFTQKGNLLRHIKL [46F_47S_49N_50Q_52G_53R_54M_55F_67L_, Q9UKT9]

## Output
1. -1.26
2. -3.15

## Input Need log2 fold change of degron read counts, item FGCEICGAIFTQKGNLLRHIKL [46F_47G_49E_50I_52G_53A_54I_55F_67L_, Q9UKT9]
## Output 2.72
